assay: Primary qHTS assay for inhibitors of alpha-synuclein gene (SNCA) expression; conditions: HEK-293 SNCA-luciferase knock-in, luminescence, 24 h; series mostly up to 57.2 µM; further: nearly all actives have a fitted effect of over 45% in size
Screen size: about 140,000 compounds; about 240 (0.17%) were called active. Roughly 9% stayed inconclusive and do not appear here. The call rests on the fitted dose curve; in most records, active means well fitted inhibition curve with a large enough effect; inconclusive means small, poorly fitted or top-dose-only effect; inactive means no such curve, though single readings can be large or run the other way. Shown is part of a subset that was picked to be rich in actives.
Result category, one only: label 1 (active), label 0 (inactive)

Q: Call for entry O=C(c1ccccc1C1CCNC1)N1CCN(C/C=C/c2ccccc2)CC1 (stereo unspecified) :
Ans: label 0

Q: I would be grateful if you could indicate the recorded call for "Cc1nn2c(c1-c1ccccc1-c1ccccc1)N(CC1CC1)CCC2" .
Ans: label 1

Q: What was the test verdict on "COc1ccc(Nc2cnc3ccc(-c4ccc(OC)nc4)nn23)cc1" ?
Ans: label 0

Q: So what was the verdict on "O=c1c2nc(-c3ccccc3)ccc2ncn1Cc1ccccc1" in this test?
Ans: label 0

Q: Could you please tell me the result logged for COc1ccc(OCC2CCN(CC3(O)CCCNC3)CC2)cc1 (stereo unspecified) in this assay?
Ans: label 0

Q: Dear all, I need the recorded test outcome for O=C1NC2(CCCN([S+](=O)([O-])c3ccccc3)C2)COc2ccccc21 (stereo unspecified) , thank you.
Ans: label 0

Q: Given "CCOc1ccccc1C(=O)N1CCC(Cc2nc(-c3ccccc3)no2)CC1" , state the outcome it received in this test.
Ans: label 0

Q: // param item: COc1ccc(-c2nc(CN3CCOC(CN)C3)c(C)o2)c2ccccc12 (stereo unspecified) ; yields the recorded call
Ans: label 0

Q: Recorded test call requested for O=C(NCc1cccc(F)c1)c1cccnc1N1CC2CC(C1)[C@H]1CCCC(=O)N1C2 (stereo partly specified)
Ans: label 0

Q: Please indicate how the test categorized "CCOc1cc(C)c(CN2C[C@@H](CN(C)C)C[C@H](CO)C2)cc1C(C)C" .
Ans: label 0

Q: // param item: "N#Cc1ccc(CN2CCN(c3nccc(Cl)n3)C(=O)C2)cc1" ; yields the recorded call
Ans: label 0

Entry source: PubChem BioAssay AID1671194
